# test_name: Terminal half life in ICR mouse at 20 mg/kg, iv measured for 24 hrs by UPLC analysis
# Type: ADME, organism-based
# measurement_context: in vivo, read-out: beta t1/2 (converted)
measured_property: half-life

1. Fc1ccc(Oc2ccc(-c3noc(-c4ccc5[nH]ccc5c4)n3)cc2)cc1    21.1 h

* * *

# test_name: Terminal half life in ICR mouse at 20 mg/kg, po administered as via gavage measured for 36 hrs by UPLC analysis
# Format: ADME, organism-based
# measurement_context: in vivo, read-out: beta t1/2 (converted)
measured_property: half-life (h)

1) Fc1ccc(Oc2ccc(-c3noc(-c4ccc5[nH]ccc5c4)n3)cc2)cc1    17

* * *

# test_name: Cmax in ICR mouse at 20 mg/kg, po administered as via gavage measured for 36 hrs by UPLC analysis
# Type: ADME, organism-based
# Design: dose 20 mg/kg, route oral
# measurement_context: in vivo
measured_property: Cmax (ng/mL)

1. Fc1ccc(Oc2ccc(-c3noc(-c4ccc5[nH]ccc5c4)n3)cc2)cc1    1000

* * *

# test_name: Drug level in mouse thigh infected with linezolid-resistant Staphylococcus aureus NRS119 at 40 mg/kg, po administered 1 hrs post infection and measured for 48 hrs
# Assay type: ADME, organism-based
# measurement_context: read-out: Drug uptake
measured_property: concentration at 48 h (ng/g)

1) FC(F)(F)c1ccc(Oc2ccc(-c3noc(-c4ccc5[nH]ccc5c4)n3)cc2)cc1    6000
2) Fc1ccc(Oc2ccc(-c3noc(-c4ccc5[nH]ccc5c4)n3)cc2)cc1    6400

* * *

# test_name: Volume of distribution in ICR mouse at 20 mg/kg, iv measured for 24 hrs by UPLC analysis
# Format: ADME, organism-based
# measurement_context: in vivo
measured_property: Vd (L/kg)

1. Fc1ccc(Oc2ccc(-c3noc(-c4ccc5[nH]ccc5c4)n3)cc2)cc1    14.2

* * *

# test_name: Distribution half life in ICR mouse at 20 mg/kg, po administered as via gavage measured for 36 hrs by UPLC analysis
# Assay type: ADME, organism-based
# measurement_context: in vivo, read-out: alphat1/2 (converted)
measured_property: half-life (h)

1. Fc1ccc(Oc2ccc(-c3noc(-c4ccc5[nH]ccc5c4)n3)cc2)cc1    6.2

* * *

# test_name: Clearance in ICR mouse at 20 mg/kg, iv measured for 24 hrs by UPLC analysis
# Assay type: ADME, organism-based
# measurement_context: in vivo
measured_property: clearance (mL/min/kg)

1. Fc1ccc(Oc2ccc(-c3noc(-c4ccc5[nH]ccc5c4)n3)cc2)cc1    7.8

* * *

# test_name: Hemolytic activity in human RBC relative to control
# Format: ADME, cell-based, Erythrocyte
# measurement_context: red blood cells (erythrocytes), read-out: Activity
Measured hemolysis, listed per entry.
measured_property: hemolysis (%)

1. Oc1ccc(-c2nc(-c3ccc(OC(F)(F)F)cc3)no2)cc1    16
2. Fc1ccc(Oc2ccc(-c3noc(-c4n[nH]cc4Cl)n3)cc2)cc1F    1.3
3. Oc1ccc(-c2nc(-c3ccc(Oc4ccc(OC(F)(F)F)cc4)cc3)no2)cc1    2.1
4. Fc1ccc(Oc2ccc(-c3noc(-c4n[nH]cc4Cl)n3)cc2)cc1Cl    2.9
5. Clc1c[nH]nc1-c1nc(-c2ccc(Oc3ccc(I)cc3)cc2)no1    3.1
6. Clc1ccc(Oc2ccc(-c3noc(-c4n[nH]cc4Cl)n3)cc2)cc1Cl    1.8

* * *

# test_name: Plasma protein binding in human at […] incubated for 2 hrs by UPLC analysis
# Assay type: ADME, cell-free
# measurement_context: read-out: PPB (converted)
compounds and their reported fraction unbound at 2 h
measured_property: fraction unbound at 2 h

1) Fc1ccc(Oc2ccc(-c3noc(-c4ccc5[nH]ccc5c4)n3)cc2)cc1    0.012
2) Clc1ccc(Oc2ccc(-c3noc(-c4n[nH]cc4Cl)n3)cc2)cc1Cl    0.022
3) Oc1ccc(-c2nc(-c3ccc(Oc4ccc(OC(F)(F)F)cc4)cc3)no2)cc1    0.002
4) Fc1ccc(Oc2ccc(-c3noc(-c4n[nH]cc4Cl)n3)cc2)cc1F    0.011
5) Fc1ccc(Oc2ccc(-c3noc(-c4n[nH]cc4Cl)n3)cc2)cc1Cl    0.088
6) Clc1c[nH]nc1-c1nc(-c2ccc(Oc3ccc(I)cc3)cc2)no1    0.095

* * *

# test_name: Drug level in mouse thigh infected with linezolid-sensitive Staphylococcus aureus NRS70 at 40 mg/kg, po administered 1 hrs post infection and measured for 48 hrs
# Assay type: ADME, organism-based
# measurement_context: read-out: Drug uptake
measured_property: concentration at 48 h (ng/g)

1) FC(F)(F)c1ccc(Oc2ccc(-c3noc(-c4ccc5[nH]ccc5c4)n3)cc2)cc1    7600
2) Fc1ccc(Oc2ccc(-c3noc(-c4ccc5[nH]ccc5c4)n3)cc2)cc1    5800
